- assayExplanation: Toxicity in mouse B16-4A5 cells assessed as inhibition of cell proliferation at 1 uM in presence of 1 mM theophylline after 72 hrs by WST8 dye reduction assay
- Type: cell-based
inhibition at 72 h, 1 µM overview
attributeMeasured: inhibition at 72 h, 1 µM (%)

[[record]]
samplesmiles = "O=Cc1ccc(O)c(O)c1"
attributemeasured = "inhibition at 72 h, 1 µM"
testvalue = -4.7

[[record]]
samplesmiles = "O=c1cc(-c2ccc(O)c(O)c2)oc2cc(O)cc(O)c12"
attributemeasured = "inhibition at 72 h, 1 µM"
testvalue = -4.8

[[record]]
samplesmiles = "COc1cc([C@H]2Oc3cc([C@H]4Oc5cc(O)cc(O)c5C(=O)[C@@H]4O)ccc3O[C@@H]2CO)ccc1O"
attributemeasured = "inhibition at 72 h, 1 µM"
testvalue = -5.7

[[record]]
samplesmiles = "O=c1c(O)c(-c2ccc(O)c(O)c2)oc2cc(O)cc(O)c12"
attributemeasured = "inhibition at 72 h, 1 µM"
testvalue = -8.8

